- Test system: Pseudomonas aeruginosa
- METHOD DESCRIPTION: FIC index, ratio of MIC for Pseudomonas aeruginosa 100609 in presence of 250 ug/ml polyethylenimine to MIC for Pseudomonas aeruginosa 100609
- Type: functional
READOUT NAME: fractional inhibitory concentration index (FICI)
No unit in the answer, please; the number alone is enough.

MOLECULE: CN(C)[C@@H]1C(O)=C(C(N)=O)C(=O)[C@@]2(O)C(O)=C3C(=O)c4c(O)cccc4[C@@](C)(O)[C@H]3C[C@@H]12 [TETRACYCLINE]
REPORTED RESULT: 1
--
MOLECULE: CO[C@H]1/C=C/O[C@@]2(C)Oc3c(C)c(O)c4c(O)c(c(/C=N/N5CCN(C)CC5)c(O)c4c3C2=O)NC(=O)/C(C)=C\C=C\[C@H](C)[C@H](O)[C@@H](C)[C@@H](O)[C@@H](C)[C@H](OC(C)=O)[C@@H]1C [RIFAMPIN]
REPORTED RESULT: 0.05
--
MOLECULE: NC[C@@H]1O[C@@H](O[C@H]2[C@H](O)[C@@H](O[C@H]3O[C@H](CO)[C@@H](O)[C@H](N)[C@H]3O)[C@H](N)C[C@@H]2N)[C@@H](O)[C@H](O)[C@H]1O [KANAMYCIN A]
REPORTED RESULT: 1.21
--
MOLECULE: CC1COc2c(N3CCN(C)CC3)c(F)cc3c(=O)c(C(=O)O)cn1c23 (stereo not drawn) [OFLOXACIN]
REPORTED RESULT: 1
--
MOLECULE: CN[C@H](CC(C)C)C(=O)N[C@H]1C(=O)N[C@@H](CC(N)=O)C(=O)N[C@H]2C(=O)N[C@H]3C(=O)N[C@H](C(=O)N[C@H](C(=O)O)c4cc(O)cc(O)c4-c4cc3ccc4O)[C@H](O)c3ccc(c(Cl)c3)Oc3cc2cc(c3O[C@@H]2O[C@H](CO)[C@@H](O)[C@H](O)[C@H]2O[C@H]2C[C@](C)(N)[C@H](O)[C@H](C)O2)Oc2ccc(cc2Cl)[C@H]1O [VANCOMYCIN]
REPORTED RESULT: 3.4

Look up fractional inhibitory concentration index (FICI) for this molecule: CC[C@H]1OC(=O)[C@H](C)[C@@H](O[C@H]2C[C@@](C)(OC)[C@@H](O)[C@H](C)O2)[C@H](C)[C@@H](O[C@@H]2O[C@H](C)C[C@H](N(C)C)[C@H]2O)[C@](C)(O)C[C@@H](C)C(=O)[C@H](C)[C@@H](O)[C@]1(C)O [ERYTHROMYCIN]
1

Consider the molecule O=C(N[C@H](CO)[C@H](O)c1ccc([N+](=O)[O-])cc1)C(Cl)Cl [CHLORAMPHENICOL] and give its measured fractional inhibitory concentration index (FICI).
0.41

Report fractional inhibitory concentration index (FICI) for CO/N=C(\C(=O)N[C@@H]1C(=O)N2C(C(=O)O)=C(COC(C)=O)CS[C@H]12)c1csc(N)n1 [CEFOTAXIME] please.
0.14

Look up fractional inhibitory concentration index (FICI): NC[C@H]1O[C@H](O[C@H]2[C@H](O)[C@@H](O[C@H]3O[C@H](CO)[C@@H](O)[C@H](N)[C@H]3O)[C@H](N)C[C@@H]2N)[C@H](N)C[C@@H]1O [TOBRAMYCIN]
4.81

fractional inhibitory concentration index (FICI) for O=C(O)c1cn(C2CC2)c2cc(N3CCNCC3)c(F)cc2c1=O [CIPROFLOXACIN] ?
1

GET /values?readout=fractional inhibitory concentration index (FICI)&item= CO[C@@H]1[C@@H](OC(N)=O)[C@@H](O)[C@H](Oc2ccc3c(O)c(NC(=O)c4ccc(O)c(CC=C(C)C)c4)c(=O)oc3c2C)OC1(C)C [NOVOBIOCIN]
0.1

What measured fractional inhibitory concentration index (FICI) goes with CC(C)(O/N=C(\C(=O)N[C@@H]1C(=O)N2C(C(=O)[O-])=C(C[n+]3ccccc3)CS[C@H]12)c1csc(N)n1)C(=O)O [CEFTAZIDIME] ?
0.04

Any idea what its fractional inhibitory concentration index (FICI) is? The molecule is CCn1cc(C(=O)O)c(=O)c2cc(F)c(N3CCNCC3)cc21 [NORFLOXACIN]
0.68

---

Some compounds, each annotated with its measured MIC.
- System: Pseudomonas aeruginosa
- METHOD DESCRIPTION: Antibacterial activity against Pseudomonas aeruginosa 100609 after 20 hrs by broth microdilution assay
- Type: functional
- CONDITION DESCRIPTION: Pseudomonas aeruginosa, 100609, 20 h
Write the value in µg/mL as a bare number.

# count of solved cases: 3
COMPOUND: CO/N=C(\C(=O)N[C@@H]1C(=O)N2C(C(=O)O)=C(COC(C)=O)CS[C@H]12)c1csc(N)n1
READOUT NAME: MIC
REPORTED RESULT: 960
--
COMPOUND: CC1COc2c(N3CCN(C)CC3)c(F)cc3c(=O)c(C(=O)O)cn1c23 (centres undefined)
READOUT NAME: MIC
REPORTED RESULT: 10
--
COMPOUND: CN[C@H](CC(C)C)C(=O)N[C@H]1C(=O)N[C@@H](CC(N)=O)C(=O)N[C@H]2C(=O)N[C@H]3C(=O)N[C@H](C(=O)N[C@H](C(=O)O)c4cc(O)cc(O)c4-c4cc3ccc4O)[C@H](O)c3ccc(c(Cl)c3)Oc3cc2cc(c3O[C@@H]2O[C@H](CO)[C@@H](O)[C@H](O)[C@H]2O[C@H]2C[C@](C)(N)[C@H](O)[C@H](C)O2)Oc2ccc(cc2Cl)[C@H]1O
READOUT NAME: MIC
REPORTED RESULT: 1120

Please report the recorded MIC for CCn1cc(C(=O)O)c(=O)c2cc(F)c(N3CCNCC3)cc21 .
15

What value of measured MIC is listed for O=C(N[C@H](CO)[C@H](O)c1ccc([N+](=O)[O-])cc1)C(Cl)Cl ?
100

Query: MIC; subject: CC1(C)S[C@@H]2[C@H](NC(=O)[C@H](N)c3ccccc3)C(=O)N2[C@H]1C(=O)O
2240

Field request: MIC | item: CC[C@H]1OC(=O)[C@H](C)[C@@H](O[C@H]2C[C@@](C)(OC)[C@@H](O)[C@H](C)O2)[C@H](C)[C@@H](O[C@@H]2O[C@H](C)C[C@H](N(C)C)[C@H]2O)[C@](C)(O)C[C@@H](C)C(=O)[C@H](C)[C@@H](O)[C@]1(C)O
140

Please report the recorded MIC for CN(C)[C@@H]1C(O)=C(C(N)=O)C(=O)[C@@]2(O)C(O)=C3C(=O)c4c(O)cccc4[C@@](C)(O)[C@H]3C[C@@H]12 .
20

Which MIC reading was recorded for the compound CO[C@@H]1[C@@H](OC(N)=O)[C@@H](O)[C@H](Oc2ccc3c(O)c(NC(=O)c4ccc(O)c(CC=C(C)C)c4)c(=O)oc3c2C)OC1(C)C ?
1600

Sample CC(C)(O/N=C(\C(=O)N[C@@H]1C(=O)N2C(C(=O)[O-])=C(C[n+]3ccccc3)CS[C@H]12)c1csc(N)n1)C(=O)O — what was its MIC?
400

What MIC value was documented for this compound, CCN1CCN(C(=O)N[C@@H](C(=O)N[C@@H]2C(=O)N3[C@@H]2SC(C)(C)[C@@H]3C(=O)O)c2ccccc2)C(=O)C1=O ?
40

Which value of MIC has been reported for O=C(O)c1cn(C2CC2)c2cc(N3CCNCC3)c(F)cc2c1=O in the records?
30

Look at this compound and give its reported MIC. CO[C@H]1/C=C/O[C@@]2(C)Oc3c(C)c(O)c4c(O)c(c(/C=N/N5CCN(C)CC5)c(O)c4c3C2=O)NC(=O)/C(C)=C\C=C\[C@H](C)[C@H](O)[C@@H](C)[C@@H](O)[C@@H](C)[C@H](OC(C)=O)[C@@H]1C
20

Request the reported MIC associated with NC[C@@H]1O[C@@H](O[C@H]2[C@H](O)[C@@H](O[C@H]3O[C@H](CO)[C@@H](O)[C@H](N)[C@H]3O)[C@H](N)C[C@@H]2N)[C@@H](O)[C@H](O)[C@H]1O
1600

---

- Test system: Pseudomonas aeruginosa
- METHOD DESCRIPTION: Antibacterial activity against Pseudomonas aeruginosa 100609 after 20 hrs by broth microdilution assay
- Assay type: functional
- CONDITION DESCRIPTION: Pseudomonas aeruginosa, 100609, 20 h
READOUT NAME: MIC

Guide cases for MIC, answers given:
COMPOUND: NC[C@H]1O[C@H](O[C@H]2[C@H](O)[C@@H](O[C@H]3O[C@H](CO)[C@@H](O)[C@H](N)[C@H]3O)[C@H](N)C[C@@H]2N)[C@H](N)C[C@@H]1O
TESTED SYSTEM: Pseudomonas aeruginosa
READOUT NAME: MIC
REPORTED RESULT: 50 µg/mL
//
COMPOUND: CC1(C)S[C@@H]2[C@H](NC(=O)[C@H](C(=O)O)c3ccsc3)C(=O)N2[C@H]1C(=O)O
TESTED SYSTEM: Pseudomonas aeruginosa
READOUT NAME: MIC
REPORTED RESULT: 1120 µg/mL

# query: MIC of entry CC1(C)S[C@@H]2[C@H](NC(=O)C(C(=O)O)c3ccccc3)C(=O)N2[C@H]1C(=O)O (stereo partly drawn)
2240 µg/mL
